Tested On: T1, soluble human CD3 epsilon chain (human, UniProt P07766 23-126)
T1 construct: also called CD3ε
T1 sequence (P07766 23-126 limits assumed): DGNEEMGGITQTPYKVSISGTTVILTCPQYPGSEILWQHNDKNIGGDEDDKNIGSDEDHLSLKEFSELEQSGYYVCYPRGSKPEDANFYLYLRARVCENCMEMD
Experimental Protocol: SPR
Entries and their pKd values follow.
Hey, just a heads up that pKd is the negative log base 10 of the concentration in molar.

Consider the following illustrative entries.
# Binder, Observed Value
measured = [
    ("TR01H031-E22Hh/none-Hi-Kn010G3/L0000-k0 (antibody, one-arm) VH: QVQLVESGGGVVQPGGSLRLSCAASGFTFSNAWMHWVRQAPGKGLEWVAQIKGKSNNYATYYAESVKGRFTISRADSKNSIYLQMNSLKTEDTAVYYCRYVHYSASYGVDIWGQGTTVTVSS light: DIVMTQSPLSLPVTPGEPASISCRSSQSLVHSNRNTYLHWYQQKPGQAPRLLIYKVSNRFSGVPDRFSGSGSGTDFTLKISRVEAEDVGVYYCGQGTQVPYTFGQGTKLEIKRTVAAPSVFIFPPSDEQLKSGTASVVCLLNNFYPREAKVQWKVDNALQSGNSQESVTEQDSKDSTYSLSSTLTLSKADYEKHKVYACEVTHQGLSSPVTKSFNRGEC", 7.12),
    ("CE115HA124-E22Hh//-Hi-Kn010G3/L0000-k0 (antibody, V domains shown, one-arm) VH: QVQLVESGGGVVQPGRSLRLSCAASGFTFSNAWMHWVRQAPGKGLEWVAQIKALSNNYATYYAESVKGRFTISRDDSKNSLYLQMNSLKTEDTAVYYCRYVHYGAYYGVDAWGQGTTVTVSS VL: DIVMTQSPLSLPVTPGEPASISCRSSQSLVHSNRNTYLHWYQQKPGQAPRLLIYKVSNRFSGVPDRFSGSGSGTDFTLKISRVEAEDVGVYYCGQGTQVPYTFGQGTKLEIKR", 6.84),
    ("TR01H043-E22Hh/none-Hi-Kn010G3/L0000-k0 (antibody, V domains shown, one-arm) VH: QVQLVESGGGLVQPGRSLRLSCSASGFTFSNAWMHWVRQAPGKGLEWVAQIKDKSNNYATYYAESVKGRFTISRADSKNSIYLQMNSLKTEDTAVYYCRYVHYSASYGVDIWGQGTTVTVSS VL: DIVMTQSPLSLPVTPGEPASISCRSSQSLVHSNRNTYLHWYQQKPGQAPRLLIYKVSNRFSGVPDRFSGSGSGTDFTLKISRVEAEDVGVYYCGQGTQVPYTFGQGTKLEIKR", 7.82),
]

Item TR01H082-E22Hh/none-Hi-Kn010G3/L0011-k0 (antibody, V domains shown, one-arm) VH: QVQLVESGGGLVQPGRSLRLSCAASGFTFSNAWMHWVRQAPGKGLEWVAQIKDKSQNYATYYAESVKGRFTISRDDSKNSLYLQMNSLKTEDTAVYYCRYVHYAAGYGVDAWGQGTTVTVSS VL: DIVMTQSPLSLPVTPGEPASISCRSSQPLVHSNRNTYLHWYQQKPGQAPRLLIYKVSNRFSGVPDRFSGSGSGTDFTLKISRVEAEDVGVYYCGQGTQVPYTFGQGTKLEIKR has what recorded pKd?
7.23

Item TR01H065-E22Hh/none-Hi-Kn010G3/L0000-k0 (antibody, V domains shown, one-arm) VH: QVQLVESGGGLVQPGRSLRLSCAASGFTFSNAWMHWVRQAPGKGLEWVAQIKDKSQNYATYYAESVKGRFTISRDDSKNSIYLQMNSLKTEDTAVYYCRYVHYAASYGVDAWGQGTTVTVSS VL: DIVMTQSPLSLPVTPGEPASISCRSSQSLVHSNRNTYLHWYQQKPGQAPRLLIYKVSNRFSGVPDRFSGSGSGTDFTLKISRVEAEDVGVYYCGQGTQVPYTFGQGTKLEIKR has what recorded pKd?
7.37
